Data origin: PubChem BioAssay (NCI)

Overview of recorded TGI for various compounds
test system: NCI-H522 lung; assay: NCI tumour cell line growth inhibition, 48 h

>>> measuredresult("COc1ccc(C(c2ccccc2)(c2ccc(OC)cc2)N2C(=O)NC3C(CCCCC(=O)NCCCCCCOP(OCCC#N)N(C(C)C)C(C)C)SCC32)cc1 (stereo not drawn)")
"27.3 µM"
>>> measuredresult("CCOC1OC(COC(=O)C(C)(C)C)C(O)CC1n1cc(C)c(=O)[nH]c1=O (stereo not drawn)")
"> 100 µM"
>>> measuredresult("C[C@@H](Oc1cc(-n2cnc3ccc(OC4CCN(C)CC4)cc32)sc1C(N)=O)c1ccccc1Cl")
"5.03 µM"
>>> measuredresult("CC(=O)NC1C(OC(C)C(=O)NC(C)C(=O)NC(CCC(=O)NCCCCCNc2ccc([N+](=O)[O-])c3[nH]c4ccccc4c(=O)c23)C(N)=O)C(O)C(CO)OC1(C)OCc1ccccc1 (stereo not drawn)")
"> 100 µM"

Ask: What does the record list as TGI for "C=CC(=O)Nc1ccc(NC(=O)C=C)c2c1C(=O)c1ccccc1C2=O" ?
Reply: 34.6 µM

Ask: Next compound up: "O=c1c2cc(-c3ccccc3)cnc2sn1-c1ccc(Br)cc1"
Reply: > 100 µM

Ask: Next compound up: "COc1ccccc1Nc1cc(O)c2c(=O)cc(-c3ccccc3)oc2c1"
Reply: 27.1 µM

Ask: Next compound up: "Cc1cc(S(=O)(=O)Nc2n[nH]c(-c3ccc(Cl)cc3)n2)c(SSc2cc(Cl)c(C)cc2S(=O)(=O)Nc2n[nH]c(-c3ccc(Cl)cc3)n2)cc1Cl"
Reply: 83.9 µM
